# Assay target: C-C chemokine receptor type 3 (Homo sapiens, UniProt P51677)
# Sequence (P51677 whole entry): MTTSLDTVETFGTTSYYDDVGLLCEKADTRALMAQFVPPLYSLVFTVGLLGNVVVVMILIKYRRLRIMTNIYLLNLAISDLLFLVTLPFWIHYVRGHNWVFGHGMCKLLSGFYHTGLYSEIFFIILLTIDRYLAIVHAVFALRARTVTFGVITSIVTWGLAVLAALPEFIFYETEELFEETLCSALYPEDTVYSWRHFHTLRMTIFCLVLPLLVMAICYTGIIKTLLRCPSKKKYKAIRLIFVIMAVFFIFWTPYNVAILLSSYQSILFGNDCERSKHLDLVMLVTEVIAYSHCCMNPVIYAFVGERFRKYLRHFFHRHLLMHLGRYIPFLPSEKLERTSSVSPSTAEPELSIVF
# Assay info: In vitro C-C chemokine receptor type 3 receptor activity of compound to inhibit eotaxin induced [Ca2+] mobilization in human Ca2+ mobilization assay
pIC50: −log10 of the molar value.
The molecules listed here are annotated with their pIC50.
Measured endpoint: pIC50

[[record]]
molecule = "COc1cccc(NC(=O)N2CCN(C(=O)OC(C)(C)C)C(CN3CCC(Cc4ccc(F)cc4)CC3)C2)c1 (racemic)"
endpoint_result = 6.70

[[record]]
molecule = "COc1cccc(NC(=O)N2CCNC(CN3CCC(Cc4ccc(F)cc4)CC3)C2)c1 (racemic)"
endpoint_result = 6.85

[[record]]
molecule = "COc1cccc(NC(=O)N2CCCC(CN3CCC(Cc4ccc(F)cc4)CC3)C2)c1 (racemic)"
endpoint_result = 6.09

[[record]]
molecule = "COc1cccc(NC(=O)N2CCOC(CN3CCC(Cc4ccc(F)cc4)CC3)C2)c1 (racemic)"
endpoint_result = 6.66

